- testedSystem: Aβ42 (Homo sapiens)
- Sequence (P05067 672-713): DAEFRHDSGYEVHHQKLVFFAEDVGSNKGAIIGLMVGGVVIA
- procedureText: Th-T (thioflavin-T) assay of Aβ42 aggregation
- Assay type: biochemical
- conditionNotes: time-course reading M113; Supplementary Fig. 47 source data
Th-T fluorescence, mean of three wells of 3 or higher: 1. Under 3: -1.

> print(dat)
                                   molecule  answerlabel
1  C=C1CCC2C(C)(CCC=C(C)C)C(O)CCC2(C)C1Cc1c(OC)oc(CO)c(C)c1=O (stereo not drawn)           -1
2  C=C1CC[C@H]2[C@]3(C)C[C@H](C=C(C)C)O[C@H]3CC[C@]2(C)[C@@H]1Cc1c(OC)oc(C)c(C)c1=O            1
3  C=C1CCC2C(C)(CCC=C(C)C)C(O)CCC2(C)C1Cc1c(OC)oc(C)c(C(=O)OC)c1=O (stereo not drawn)           -1

# input for lookup
Dear colleague, could you confirm whether C=C1CC[C@H]2[C@]3(C)C[C@H](C=C(C)C)O[C@H]3CC[C@]2(C)[C@@H]1Cc1c(OC)oc(CO)c(C)c1=O has Th-T fluorescence, mean of three wells at or above 3?
1

---

- testedSystem: Aβ42 (Homo sapiens)
- procedureText: Th-T (thioflavin-T) assay of Aβ42 aggregation
- Format: biochemical
- conditionNotes: column suffix _20; measurement M29
recordedEndpoint: Th-T fluorescence, mean of three wells (Fig. 7a)
Answers are plain numbers.

The cases that follow already have their Th-T fluorescence, mean of three wells (Fig. 7a) on record.
> print(dat)
                                   compound         testedsystem  testresult
1  C=C1CC[C@@H]2[C@](C)(CC[C@H]3O[C@H](C=C(C)C)C[C@@]23C)[C@@H]1Cc1c(OC)oc(CO)c(C(=O)OC)c1=O [Compound 21]  Aβ42 (Homo sapiens)      0.2027
2  C=C1CCC2C(C)(CCC=C(C)C)C(O)CCC2(C)C1Cc1c(OC)oc(CO)c(C)c1=O (centres unmarked) [Compound 12]  Aβ42 (Homo sapiens)       2.411
3  C=C1CC[C@@H]2[C@](C)(CC[C@H]3O[C@H](C=C(C)C)C[C@@]23C)[C@@H]1Cc1c(OC)oc(CO)c(C)c1=O [Compound 20]  Aβ42 (Homo sapiens)        3.34
4  C=C1CCC2C(C)(CCC=C(C)C)C(O)CCC2(C)C1Cc1c(OC)oc(CO)c(C(=O)OC)c1=O (centres unmarked) [Compound 13]  Aβ42 (Homo sapiens)      0.1931

Query compound follows.
API: value(readout=Th-T fluorescence, mean of three wells (Fig. 7a), system=Aβ42 (Homo sapiens)) for record C=C1CCC2C(C)(CCC=C(C)C)C(O)CCC2(C)C1Cc1c(OC)oc(C)c(C(=O)OC)c1=O (centres unmarked) [Compound 14]
1.711

---

For each record, write down the corresponding Th-T fluorescence, mean of three wells (Fig. 7a).
- testedSystem: Aβ42 (Homo sapiens)
- procedureText: Th-T (thioflavin-T) assay of Aβ42 aggregation
- Assay type: biochemical
- conditionNotes: reading M116; compound at 20 (head suffix _20)
Numbers only.

The cases that follow already have their Th-T fluorescence, mean of three wells (Fig. 7a) on record.
> print(dat)
                                   molecule  testresult
1  C=C1CCC2C(C)(CCC=C(C)C)C(O)CCC2(C)C1Cc1c(OC)oc(CO)c(C)c1=O (centres unmarked) [Compound 12]      2.1099
2  C=C1CC[C@@H]2[C@](C)(CC[C@H]3O[C@H](C=C(C)C)C[C@@]23C)[C@@H]1Cc1c(OC)oc(CO)c(C(=O)OC)c1=O [Compound 21]      0.9595
3  C=C1CCC2C(C)(CCC=C(C)C)C(O)CCC2(C)C1Cc1c(OC)oc(CO)c(C(=O)OC)c1=O (centres unmarked) [Compound 13]       1.033
4  C=C1CCC2C(C)(CCC=C(C)C)C(O)CCC2(C)C1Cc1c(OC)oc(C)c(C(=O)OC)c1=O (centres unmarked) [Compound 14]       1.656

Query molecule follows.
For C=C1CC[C@@H]2[C@](C)(CC[C@H]3O[C@H](C=C(C)C)C[C@@]23C)[C@@H]1Cc1c(OC)oc(CO)c(C)c1=O [Compound 20] , what is its reported Th-T fluorescence, mean of three wells (Fig. 7a)?
3.193

---

- testedSystem: Aβ42 (Homo sapiens)
- procedureText: Th-T (thioflavin-T) assay of Aβ42 aggregation
- Format: biochemical
- conditionNotes: Supplementary Fig. 47 source data; measurement M53 of time course
recordedEndpoint: Th-T fluorescence, mean of three wells

The cases that follow already have their Th-T fluorescence, mean of three wells on record.
> print(dat)
                                   compound                        recordedendpoint  testresult
1  C=C1CC[C@@H]2[C@](C)(CC[C@H]3O[C@H](C=C(C)C)C[C@@]23C)[C@@H]1Cc1c(O)c(C)c(C)oc1=O  Th-T fluorescence, mean of three wells       3.131
2  C=C1CC[C@H]2[C@]3(C)C[C@H](C=C(C)C)O[C@H]3CC[C@]2(C)[C@@H]1Cc1c(OC)oc(C)c(C)c1=O  Th-T fluorescence, mean of three wells       4.133
3  CC(C)=CCC/C(C)=C/CC/C(C)=C/CC/C(C)=C/Cc1c(O)c(C)c(C)oc1=O  Th-T fluorescence, mean of three wells       2.889
4  C=C1CC[C@H]2[C@]3(C)C[C@H](C=C(C)C)O[C@H]3CC[C@]2(C)[C@@H]1Cc1c(OC)oc(CO)c(C)c1=O  Th-T fluorescence, mean of three wells       3.941
5  C=C1CC[C@H]2[C@]3(C)C[C@@H](C=C(C)C)O[C@H]3CC[C@]2(C)[C@@H]1Cc1c(O)c(C)c(C)oc1=O  Th-T fluorescence, mean of three wells       2.692
6  C=C1CCC2C(C)(CC(=O)C=C(C)C)C(O)CCC2(C)C1Cc1c(OC)oc(C)c(C)c1=O (stereo not drawn)  Th-T fluorescence, mean of three wells       3.724

Quick one: give me Th-T fluorescence, mean of three wells for each item below, same order please.
1. C=C1CC[C@H]2[C@]3(C)C[C@H](C=C(C)C)O[C@H]3CC[C@]2(C)[C@@H]1Cc1c(O)c(C)c(C)oc1=O
2. C=C1CC[C@H]2[C@]3(C)C[C@@H](C=C(C)C)O[C@H]3CC[C@]2(C)[C@@H]1Cc1c(OC)oc(CO)c(C)c1=O

1: 3.12; 2: 3.554

Quick one: give me Th-T fluorescence, mean of three wells for each item below, same order please.
1. C=C1CCC2C(C)(CC(=O)C=C(C)C)C(O)CCC2(C)C1Cc1c(OC)oc(CO)c(C)c1=O (stereo not drawn)
2. C=C1CCC2C3(C)CC(C=C(C)C)OC3CCC2(C)C1Cc1c(OC)oc(C)c(C)c1=O (stereo not drawn)
3. C=C1CCC2C(C)(CCC=C(C)C)C(=O)CCC2(C)C1Cc1c(O)c(C)c(C)oc1=O (stereo not drawn)
4. C=C1CCC2C(C)(CC(=O)C=C(C)C)C(O)CCC2(C)C1Cc1c(O)c(C)c(C)oc1=O (stereo not drawn)

[3.596, 3.995, 2.236, 3.622]

---

- testedSystem: Aβ42 (Homo sapiens)
- procedureText: Th-T (thioflavin-T) assay of Aβ42 aggregation
- Type: biochemical
- conditionNotes: head suffix _50 (concentration 50); reading M71
recordedEndpoint: Th-T fluorescence of Aβ42 (sheet Fig. 7a), mean of three wells
Give bare numbers.

Quick one: give me Th-T fluorescence of Aβ42 (sheet Fig. 7a), mean of three wells for each item below, same order please.
1. C=C1CCC2C(C)(CCC=C(C)C)C(O)CCC2(C)C1Cc1c(OC)oc(C)c(C(=O)OC)c1=O (centres unmarked)
2. C=C1CCC2C(C)(CCC=C(C)C)C(O)CCC2(C)C1Cc1c(OC)oc(CO)c(C(=O)OC)c1=O (centres unmarked)
3. C=C1CC[C@@H]2[C@](C)(CC[C@H]3O[C@H](C=C(C)C)C[C@@]23C)[C@@H]1Cc1c(OC)oc(CO)c(C)c1=O
4. C=C1CCC2C(C)(CCC=C(C)C)C(O)CCC2(C)C1Cc1c(OC)oc(CO)c(C)c1=O (centres unmarked)
5. C=C1CC[C@@H]2[C@](C)(CC[C@H]3O[C@H](C=C(C)C)C[C@@]23C)[C@@H]1Cc1c(OC)oc(CO)c(C(=O)OC)c1=O

1: 3.0146; 2: 0.4721; 3: 2.105; 4: 1.445; 5: 0.2613

---

- Test system: DL1 cells
- procedureText: cytotoxicity in Drosophila DL1 cells
- Assay type: cell-based
- conditionNotes: DL1 cells, 20 µM, replicate 1
recordedEndpoint: Luminescence Raw1
Numbers only.

The cases that follow already have their Luminescence Raw1 on record.
> print(dat)
                                   molecule  testresult
1  C=C1CCC2C(C)(CCC=C(C)C)C(O)CCC2(C)C1Cc1c(OC)oc(C)c(C)c1=O (centres unmarked) [Compound 15, viridoxin A hydrolysate]      282109
2  C=C1CC[C@@H]2[C@](C)(CC[C@H]3O[C@H](C=C(C)C)C[C@@]23C)[C@@H]1Cc1c(OC)oc(CO)c(C(=O)OC)c1=O [Compound 21]       95187
3  C=C1CC[C@@H]2[C@](C)(CC[C@H]3O[C@H](C=C(C)C)C[C@@]23C)[C@@H]1Cc1c(OC)oc(CO)c(C)c1=O [Compound 20]      281027
4  C=C1CCC2C(C)(CC(=O)C=C(C)C)C(O)CCC2(C)C1Cc1c(OC)oc(CO)c(C)c1=O (centres unmarked) [Compound 19]      315492

Quick one: give me Luminescence Raw1 for each item below, same order please.
1. C=C1CC[C@H]2[C@]3(C)C[C@H](C=C(C)C)O[C@H]3CC[C@]2(C)[C@@H]1Cc1c(O)c(C)c(C)oc1=O [Compound 6, subglutinol B]
2. C=C1CC[C@H]2[C@]3(C)C[C@H](C=C(C)C)O[C@H]3CC[C@]2(C)[C@@H]1Cc1c(OC)oc(CO)c(C)c1=O [Compound 18]
3. C=C1CCC2C(C)(CC(=O)C=C(C)C)C(O)CCC2(C)C1Cc1c(OC)oc(C)c(C)c1=O (centres unmarked) [Compound 25]
4. C=C1CC[C@@H]2[C@](C)(CC[C@H]3O[C@H](C=C(C)C)C[C@@]23C)[C@@H]1Cc1c(O)c(C)c(C)oc1=O [Compound 10, higginsianin A]

1. 149254
2. 80404
3. 396244
4. 118984
